system: β-galactosidase in CMV-LacZ C2C12 myoblasts; test: CMV-LacZ secondary screen in C2C12 myoblasts (β-Gal stabilizing assay); type: cell-based, mouse; details: 0.5 uM; CMV-LacZ C2C12 myoblasts
CMV-LACZ in Myoblasts (β-galactosidase activity relative to DMSO) below 1 gives -1; CMV-LACZ in Myoblasts (β-galactosidase activity relative to DMSO) at or above it gives 1.

molecule=Br.COc1ccc(C(=O)CN2CCCCC2)cc1 grouplabel=1
molecule=O=C(Nc1cc(-c2nc3ccccc3s2)ccc1Cl)c1ccc2c(c1)OCO2 grouplabel=-1
molecule=Cc1cccc(C)c1NCC(=O)N1CCN(Cc2ccccc2)CC1.Cl grouplabel=1
molecule=CCN(CC)C(=O)c1sc2nc(-c3ccc(OC)cc3)cn2c1C grouplabel=-1
molecule="COC(=O)Cn1c(=O)c2c(nc3n2CC(C)CN3Cc2ccccc2)n(C)c1=O (centres unmarked)" grouplabel=-1

Data origin: patent US9980943B2
